Reported DC50 values follow for various compounds
- target_entity: SMARCA4 (Homo sapiens, UniProt P51532)
- Construct: SMARCA2 and SMARCA4 protein degradation in MV4-11 cells; endogenous in cells; host or cells: MV4-11
- Sequence (P51532 whole entry): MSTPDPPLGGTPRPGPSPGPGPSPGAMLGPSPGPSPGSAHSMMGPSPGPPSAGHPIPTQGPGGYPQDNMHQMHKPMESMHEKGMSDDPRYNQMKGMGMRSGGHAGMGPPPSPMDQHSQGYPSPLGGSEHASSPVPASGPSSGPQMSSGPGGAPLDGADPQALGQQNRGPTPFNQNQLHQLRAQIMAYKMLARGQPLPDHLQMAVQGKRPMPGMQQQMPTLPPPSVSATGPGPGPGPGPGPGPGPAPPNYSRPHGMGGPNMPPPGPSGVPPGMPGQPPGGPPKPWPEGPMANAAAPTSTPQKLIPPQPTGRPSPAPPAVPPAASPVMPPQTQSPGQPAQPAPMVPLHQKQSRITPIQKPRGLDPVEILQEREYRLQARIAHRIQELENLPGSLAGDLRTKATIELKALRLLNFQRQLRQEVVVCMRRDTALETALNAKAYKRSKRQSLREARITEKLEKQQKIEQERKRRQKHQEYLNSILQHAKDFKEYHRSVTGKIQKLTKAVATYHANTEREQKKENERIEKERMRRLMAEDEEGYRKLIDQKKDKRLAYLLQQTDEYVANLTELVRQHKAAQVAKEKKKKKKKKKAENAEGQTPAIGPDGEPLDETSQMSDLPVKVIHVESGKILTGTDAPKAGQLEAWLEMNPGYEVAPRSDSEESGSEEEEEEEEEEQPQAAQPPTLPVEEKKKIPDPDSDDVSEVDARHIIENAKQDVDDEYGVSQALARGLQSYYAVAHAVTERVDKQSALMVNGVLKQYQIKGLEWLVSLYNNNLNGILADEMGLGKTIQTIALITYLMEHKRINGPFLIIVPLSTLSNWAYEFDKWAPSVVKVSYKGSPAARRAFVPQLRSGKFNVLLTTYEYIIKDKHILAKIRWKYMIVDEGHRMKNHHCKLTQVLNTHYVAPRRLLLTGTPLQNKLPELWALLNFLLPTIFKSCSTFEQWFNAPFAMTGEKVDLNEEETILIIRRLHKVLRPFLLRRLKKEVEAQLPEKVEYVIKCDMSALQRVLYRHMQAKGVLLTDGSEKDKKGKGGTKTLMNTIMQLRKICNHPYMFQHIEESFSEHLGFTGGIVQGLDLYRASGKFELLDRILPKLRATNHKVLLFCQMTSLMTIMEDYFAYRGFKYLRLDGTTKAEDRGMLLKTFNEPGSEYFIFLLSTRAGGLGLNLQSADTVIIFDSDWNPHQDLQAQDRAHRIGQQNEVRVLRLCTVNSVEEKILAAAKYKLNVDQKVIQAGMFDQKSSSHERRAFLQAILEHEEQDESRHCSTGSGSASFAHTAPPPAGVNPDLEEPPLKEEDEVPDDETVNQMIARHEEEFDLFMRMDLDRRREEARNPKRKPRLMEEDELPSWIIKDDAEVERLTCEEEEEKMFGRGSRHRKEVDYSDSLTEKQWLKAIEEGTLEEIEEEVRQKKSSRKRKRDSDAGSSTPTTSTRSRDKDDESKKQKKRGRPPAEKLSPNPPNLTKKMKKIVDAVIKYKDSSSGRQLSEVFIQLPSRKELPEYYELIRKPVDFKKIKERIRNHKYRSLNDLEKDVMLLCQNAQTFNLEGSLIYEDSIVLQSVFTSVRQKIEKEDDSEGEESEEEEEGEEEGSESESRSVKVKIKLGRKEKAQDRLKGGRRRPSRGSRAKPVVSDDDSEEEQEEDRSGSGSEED
- method_description: SMARCA4 Western blot MV4-11 degradation
- Type: cell-based
- cond: MV4-11 cells, 24 h, read-out: SMARCA4 WB MV411 degradation 24 h: Average external-Abs DC50
- Protocol: Cells were seeded into 6-well plates (MV4-11: 4×10^6 cells/well/1 ml) and 1 ml of 2× compound solution was added into the well to make the final concentration and the plates were mixed well and incubated for 24 hours (No cytotoxicity was observed). The cell were collected with media and spun at 3000 rpm for 5 minutes. […] The membrane was washed three times with TBST, 5 minutes each and lastly the LiCOR was read. […]

Some compounds with known DC50 results, for comparison:
Cc1ncsc1-c1ccc(CNC(=O)[C@@H]2C[C@@H](O)CN2C(=O)[C@@H](NC(=O)C[C@H]2CC[C@H](N3CCC(n4cc(-c5cc(-c6ccccc6O)nnc5N)cn4)CC3)CC2)C(C)(C)C)cc1 [I-328] | < 100 nM
Cc1ncsc1-c1ccc(CNC(=O)[C@@H]2C[C@@H](O)CN2C(=O)[C@@H](NC(=O)C2CCN(C(=O)c3cnc(N4C5CCC4CN(c4cc(-c6ccccc6O)nnc4N)C5)nc3)CC2)C(C)(C)C)cc1 [I-342] | 100 to 500 nM
Cn1c(=O)n(C2CCC(=O)NC2=O)c2cccc(C#CCN3CCCC(c4cnc(N5C6CCC5CN(c5cc(-c7ccccc7O)nnc5N)C6)nc4)C3)c21 (stereo not shown) [I-300] | < 100 nM
Cn1c(=O)n(C2CCC(=O)NC2=O)c2ccc(CC(=O)N3CCN(Cc4cnc(N5C6CCC5CN(c5cc(-c7ccccc7O)nnc5N)C6)nc4)CC3)cc21 (stereo not shown) [I-294] | < 100 nM

So for Cc1ncsc1-c1ccc(CNC(=O)[C@@H]2C[C@@H](O)CN2C(=O)[C@@H](NC(=O)[C@H]2C[C@]3(C2)C[C@H](c2cnc(N4C5CCC4CN(c4cc(-c6ccccc6O)nnc4N)C5)nc2)C3)C(C)(C)C)c(C(F)(F)F)c1 (stereo partly shown) [I-420] , the logged DC50 turned out to be 100 to 500 nM

So for Cn1c(=O)n(C2CCC(=O)NC2=O)c2ccc(CCCN3CCCC(c4cnc(N5C6CCC5CN(c5cc(-c7ccccc7O)nnc5N)C6)nc4)C3)cc21 (stereo not shown) [I-289] , the logged DC50 turned out to be < 100 nM

So for Cc1ncsc1-c1ccc(CNC(=O)[C@@H]2C[C@@H](O)CN2C(=O)[C@@H](NC(=O)[C@H]2CCN(Cc3cnc(N4C5CCC4CN(c4cc(-c6ccccc6O)nnc4N)C5)nc3)C2)C(C)(C)C)cc1 [I-387] , the logged DC50 turned out to be 501 to 1000 nM

So for Cc1ncsc1-c1ccc(CNC(=O)[C@@H]2C[C@@H](O)CN2C(=O)[C@@H](NC(=O)[C@H]2C[C@@]3(C2)C[C@H](c2ccc(CN4CCC(Cn5cc(-c6cc(-c7ccccc7O)nnc6N)cn5)CC4)cc2)C3)C(C)(C)C)cc1 (stereo partly shown) [I-434] , the logged DC50 turned out to be < 100 nM

So for Cc1ncsc1-c1ccc(CNC(=O)[C@@H]2C[C@@H](O)CN2C(=O)[C@@H](NC(=O)c2ccc(CCCCCN3CCC(Cn4cc(-c5cc(-c6ccccc6O)nnc5N)cn4)CC3)cc2)C(C)(C)C)cc1 [I-505] , the logged DC50 turned out to be 100 to 500 nM

So for CN(CCCC#Cc1cnc(N2C3CCC2CN(c2cc(-c4ccccc4O)nnc2N)C3)nc1)Cc1ccc2c(c1)n(C)c(=O)n2C1CCC(=O)NC1=O (stereo not shown) [I-298] , the logged DC50 turned out to be < 100 nM
